# MEASURED ON: recombinant human ACC2 (Homo sapiens, UniProt O00763)
# Construct: a cDNA encoding human ACC2 (27-2458) was cloned from human kidney cDNA library (Clontech); His-tag (N); made in house; host or cells: Sf-9 insect cells (Bac-to-Bac baculovirus)
# Sequence (O00763 27-2458): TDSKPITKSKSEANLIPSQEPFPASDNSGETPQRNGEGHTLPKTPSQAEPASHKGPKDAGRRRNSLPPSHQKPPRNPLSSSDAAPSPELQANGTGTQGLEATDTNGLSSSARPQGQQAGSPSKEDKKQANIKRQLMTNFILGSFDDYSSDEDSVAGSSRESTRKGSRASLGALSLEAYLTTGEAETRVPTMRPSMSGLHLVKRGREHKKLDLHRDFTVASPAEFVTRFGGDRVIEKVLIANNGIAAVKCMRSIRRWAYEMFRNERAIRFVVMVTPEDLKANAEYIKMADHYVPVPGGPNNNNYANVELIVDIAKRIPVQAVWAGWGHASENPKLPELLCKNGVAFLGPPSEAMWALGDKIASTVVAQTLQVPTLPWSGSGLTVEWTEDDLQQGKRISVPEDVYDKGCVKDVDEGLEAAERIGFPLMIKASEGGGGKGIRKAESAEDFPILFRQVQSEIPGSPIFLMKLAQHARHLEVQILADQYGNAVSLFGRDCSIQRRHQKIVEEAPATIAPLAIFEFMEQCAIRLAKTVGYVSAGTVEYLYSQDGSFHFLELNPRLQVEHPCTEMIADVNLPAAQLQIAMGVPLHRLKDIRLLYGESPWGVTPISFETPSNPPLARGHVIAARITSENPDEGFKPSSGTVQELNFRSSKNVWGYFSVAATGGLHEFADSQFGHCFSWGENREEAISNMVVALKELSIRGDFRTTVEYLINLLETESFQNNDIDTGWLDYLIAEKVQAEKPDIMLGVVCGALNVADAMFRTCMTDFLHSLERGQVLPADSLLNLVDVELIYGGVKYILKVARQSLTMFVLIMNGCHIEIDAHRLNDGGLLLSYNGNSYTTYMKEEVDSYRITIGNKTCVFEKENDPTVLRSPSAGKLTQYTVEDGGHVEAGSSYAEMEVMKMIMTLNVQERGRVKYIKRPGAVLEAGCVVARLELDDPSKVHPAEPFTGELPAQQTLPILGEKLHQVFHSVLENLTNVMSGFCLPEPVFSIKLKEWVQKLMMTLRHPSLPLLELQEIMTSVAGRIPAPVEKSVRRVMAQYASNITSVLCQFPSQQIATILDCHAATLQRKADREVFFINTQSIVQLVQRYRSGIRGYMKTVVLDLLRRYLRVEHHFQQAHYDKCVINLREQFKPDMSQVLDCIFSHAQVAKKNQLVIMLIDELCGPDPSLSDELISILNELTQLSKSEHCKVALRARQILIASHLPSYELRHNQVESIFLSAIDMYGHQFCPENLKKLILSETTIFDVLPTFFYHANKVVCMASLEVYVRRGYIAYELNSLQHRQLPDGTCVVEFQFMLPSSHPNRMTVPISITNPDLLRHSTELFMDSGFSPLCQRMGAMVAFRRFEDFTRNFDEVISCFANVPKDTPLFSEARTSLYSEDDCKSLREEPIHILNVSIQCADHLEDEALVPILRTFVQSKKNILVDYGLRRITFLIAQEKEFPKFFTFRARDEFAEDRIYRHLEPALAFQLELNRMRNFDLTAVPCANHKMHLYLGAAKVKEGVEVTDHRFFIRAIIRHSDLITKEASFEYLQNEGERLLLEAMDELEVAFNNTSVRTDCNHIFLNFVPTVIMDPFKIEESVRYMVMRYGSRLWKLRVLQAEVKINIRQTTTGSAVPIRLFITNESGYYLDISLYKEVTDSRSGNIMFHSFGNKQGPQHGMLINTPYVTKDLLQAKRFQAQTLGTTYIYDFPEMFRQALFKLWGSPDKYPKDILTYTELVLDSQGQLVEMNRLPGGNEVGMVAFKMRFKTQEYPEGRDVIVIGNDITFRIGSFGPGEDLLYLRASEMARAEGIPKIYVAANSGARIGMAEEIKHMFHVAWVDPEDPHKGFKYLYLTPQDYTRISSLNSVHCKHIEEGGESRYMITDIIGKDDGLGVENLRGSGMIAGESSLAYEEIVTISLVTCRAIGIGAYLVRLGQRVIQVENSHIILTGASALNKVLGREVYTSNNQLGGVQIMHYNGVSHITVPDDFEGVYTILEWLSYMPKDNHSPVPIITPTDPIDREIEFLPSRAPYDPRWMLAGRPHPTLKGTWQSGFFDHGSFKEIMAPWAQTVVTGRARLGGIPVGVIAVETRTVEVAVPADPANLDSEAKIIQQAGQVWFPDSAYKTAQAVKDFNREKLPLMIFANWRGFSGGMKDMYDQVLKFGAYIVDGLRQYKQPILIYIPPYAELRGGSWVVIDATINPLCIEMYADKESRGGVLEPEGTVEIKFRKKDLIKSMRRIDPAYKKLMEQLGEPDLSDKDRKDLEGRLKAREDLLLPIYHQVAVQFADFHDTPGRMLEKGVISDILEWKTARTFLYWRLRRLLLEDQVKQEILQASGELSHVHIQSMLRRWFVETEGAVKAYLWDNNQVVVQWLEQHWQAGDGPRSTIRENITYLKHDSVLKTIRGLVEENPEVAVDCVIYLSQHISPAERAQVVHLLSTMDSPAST
# PROCEDURE SUMMARY: Measurement of inhibitory activity on human ACC2 (MALDI-TOF MS, acetyl CoA to malonyl CoA conversion)
# Assay type: biochemical
# DETAILS: inhibition activity on human ACC2, Table 84; read-out: IC50
pIC50: −log10 of the molar value.
ENDPOINT NAME: pIC50

Read the entry CC(=O)N[C@@H](C)/C=C/c1ccc(Oc2ccc3c(c2)C(=O)N(CC2CC2)CC3)nc1 [Compound I-518] and write its reported pIC50. 6.10

Read the entry CCCc1ccc(Oc2ccc(/C=C/[C@H](C)NC(C)=O)cn2)c(C)c1 [Compound I-437] and write its reported pIC50. 7.48

Read the entry CC(=O)N[C@@H](C)/C=C/c1ccc(Oc2cc3sc(C)nc3cc2Cl)nc1 [Compound I-478] and write its reported pIC50. 6.26

Read the entry CCCc1ccc(Oc2ccc(/C=C/[C@H](C)NC(C)=O)cn2)c(OC)c1 [Compound I-438] and write its reported pIC50. 6.11

Read the entry CCCc1cc(Cl)cc(Oc2ccc(/C=C/[C@H](C)NC(C)=O)cn2)c1 [Compound I-470] and write its reported pIC50. 6.64

Read the entry CC(=O)N[C@@H](C)/C=C/c1ccc(Oc2ccc(OCc3ccccc3)cc2Cl)nc1 [Compound I-450] and write its reported pIC50. 7.22

Read the entry CC(=O)N[C@@H](C)/C=C/c1cnc(Oc2ccc(OCC3CC3)cc2Cl)c(C#N)c1 [Compound I-445] and write its reported pIC50. 6.59

Read the entry CC(=O)N[C@@H](C)/C=C/c1ccc(Oc2ccc3c(c2)OC(C)(C)C3)nc1 [Compound I-519] and write its reported pIC50. 7.23

(I) CC(=O)N[C@@H](C)/C=C/c1ccc(Oc2ccc(-c3ncc(F)cn3)cc2)nc1 [Compound I-493]
(II) CC(=O)N[C@@H](C)/C=C/c1ccc(Oc2ccc3c(c2)OC(F)(F)C(F)(F)O3)nc1 [Compound I-482]
(III) CC(=O)N[C@@H](C)/C=C/c1ccc(Oc2ccc(-c3ccc(C#N)cc3)cc2)nc1 [Compound I-515]
Arrange the 3 compounds by rising pIC50, starting with the smallest. Sort and list the labels as requested. III, I, II

(P) CC(=O)N[C@@H](C)/C=C/c1ccc(Oc2ccc3c(c2)OCC3)nc1 [Compound I-448]
(Q) CCC(CC)c1ccc(Oc2ccc(/C=C/[C@H](C)NC(C)=O)cn2)c(Cl)c1 [Compound I-436]
Out of P and Q , name the one with the higher pIC50. # reply format: chosen label Q

(1) CCCc1cc(Oc2ccc(/C=C/[C@H](C)NC(C)=O)cn2)ccc1Cl [Compound I-485]
(2) CC(=O)N[C@@H](C)/C=C/c1ccc(Oc2ccc3c(c2)CC(C)(C)O3)nc1 [Compound I-498]
(3) CCCC(F)(CC)c1ccc(Oc2ccc(/C=C/[C@H](C)NC(C)=O)cn2)c(Cl)c1 (some centres unmarked) [Compound I-467]
Arrange the 3 compounds by rising pIC50, starting with the smallest. Sort and list the labels as requested. 1, 3, 2
(1: 6.89, 3: 7.37, 2: 7.57)

---

# MEASURED ON: recombinant human ACC2 (Homo sapiens, UniProt O00763)
# Construct: a cDNA encoding human ACC2 (27-2458) was cloned from human kidney cDNA library (Clontech); His-tag (N); made in house; host or cells: Sf-9 insect cells (Bac-to-Bac baculovirus)
# PROCEDURE SUMMARY: Measurement of inhibitory activity on human ACC2 (MALDI-TOF MS, acetyl CoA to malonyl CoA conversion)
# Type: biochemical
# DETAILS: inhibition activity on human ACC2, Table 79; read-out: IC50
ENDPOINT NAME: IC50 (µM)

Some compounds with known IC50 results, for comparison:
Read the entry CCOc1ccc(COc2ccc(/C=C/[C@H](C)NC(C)=O)cn2)cc1 and write its reported IC50. 0.071

Read the entry C[C@@H](/C=C/c1cnc(Oc2ccc(OCC3CC3)cc2Cl)s1)NC(=O)CC(N)=O and write its reported IC50. 0.15

Read the entry CC(=O)N[C@@H](C)/C=C/c1cnc(Oc2cccc(OC(C)C)c2C)s1 and write its reported IC50. 0.082

Read the entry CCOc1cccc(Oc2ccc(/C=C/[C@H](C)NC(C)=O)cn2)c1Cl and write its reported IC50. 0.037

Read the entry CC(=O)N[C@@H](C)/C=C/c1cnc(Oc2ccc(OCC3CC3)cc2Cl)nc1 and write its reported IC50. 0.054

(a) COC(=O)CCCC(=O)N[C@@H](C)/C=C/c1cnc(Oc2ccc(OCC3CC3)cc2Cl)s1
(b) C[C@@H](/C=C/c1cnc(Oc2ccc(OCC3CC3)cc2Cl)s1)NC(=O)C1(C(N)=O)CC1
(c) C[C@@H](/C=C/c1cnc(Oc2ccc(OCC3CC3)cc2Cl)s1)NC(=O)CCCN1CCCC1=O
(d) CC(C)COCC(=O)N[C@@H](C)/C=C/c1cnc(Oc2ccc(OCC3CC3)cc2Cl)s1
(e) CCOc1ccc(Oc2ccc(/C=C/[C@H](C)NC(C)=O)cn2)cc1
Arrange the 5 compounds by rising IC50, starting with the smallest. Sort and list the labels as requested. e, b, a, c, d

(I) C[C@@H](/C=C/c1cnc(Oc2ccc(OCC3CC3)cc2Cl)s1)NC(=O)CC(F)(F)F
(II) C[C@@H](/C=C/c1cnc(Oc2ccc(OCC3CC3)cc2Cl)s1)NC(=O)CCCn1cncn1
(III) CC(=O)N[C@@H](C)/C=C/c1cnn(Cc2ccc(OCC3CC3)cc2F)c1
(IV) CCOc1cc(Cl)cc(Oc2ccc(/C=C/[C@H](C)NC(C)=O)cn2)c1
(V) CC(=O)N[C@@H](C)/C=C/c1cnn(Cc2ccc(OCC3CC3)cc2Cl)c1
Arrange the 5 compounds by rising IC50, starting with the smallest. Sort and list the labels as requested. IV, I, II, V, III
(IV: 0.083 µM, I: 0.16 µM, II: 0.35 µM, V: 0.83 µM, III: 1.2 µM)

(I) C[C@@H](/C=C/c1cnc(Oc2ccc(OCC3CC3)cc2Cl)s1)NC(=O)C1(C#N)CC1
(II) CC(=O)N[C@@H](C)/C=C/c1cnc(Oc2ccc(NCC3CC3)cc2Cl)nc1
Out of I and II , name the one with the higher IC50. # reply format: chosen label II
(II: 0.43 µM, I: 0.12 µM)

(P) CC(=O)N[C@@H](C)/C=C/c1cnn(Cc2ccc(OCC3CC3)cc2)c1
(Q) C[C@@H](/C=C/c1cnc(Oc2ccc(OCC3CC3)cc2Cl)s1)NC(=O)C1CC1
# return whichever of P and Q has the smaller IC50 # reply format: chosen label Q

---

# MEASURED ON: recombinant human ACC2 (Homo sapiens, UniProt O00763)
# Construct: a cDNA encoding human ACC2 (27-2458) was cloned from human kidney cDNA library (Clontech); His-tag (N); made in house; host or cells: Sf-9 insect cells (Bac-to-Bac baculovirus)
# PROCEDURE SUMMARY: Measurement of inhibitory activity on human ACC2 (MALDI-TOF MS, acetyl CoA to malonyl CoA conversion)
# Format: biochemical
# DETAILS: inhibition activity on human ACC2, Table 84; read-out: IC50
pIC50: −log10 of the molar value.
ENDPOINT NAME: pIC50

Some molecules with known pIC50 results, for comparison:
Read the entry CC(=O)N[C@@H](C)/C=C/c1ccc(Oc2ccc3c(c2Cl)CCN(CC2CC2)C3=O)nc1 and write its reported pIC50. 7.06

Read the entry CCc1nc2ccc(Oc3ccc(/C=C/[C@H](C)NC(C)=O)cn3)cc2o1 and write its reported pIC50. 7.68

Read the entry CC(=O)N[C@@H](C)/C=C/c1ccc(Oc2ccc3c(C)nsc3c2)nc1 and write its reported pIC50. 6.96

Read the entry CC(=O)N[C@@H](C)/C=C/c1ccc(Oc2ccc(-c3ccc(F)cc3)cc2)nc1 and write its reported pIC50. 7.02

Read the entry CC(=O)N[C@@H](C)/C=C/c1ccc(Oc2ccc3c(c2)CCN(CC2CC2)C3=O)nc1 and write its reported pIC50. 7.05

(a) CCCc1ccc(Oc2ncc(/C=C/[C@H](C)NC(C)=O)cn2)c(Cl)c1
(b) CC(=O)N[C@@H](C)/C=C/c1ccc(Oc2ccc(Oc3cccnc3)cc2Cl)nc1
# return whichever of a and b has the smaller pIC50 # reply format: chosen label a

---

# MEASURED ON: recombinant human ACC2 (Homo sapiens)
# Construct: a cDNA encoding human ACC2 (27-2458) was cloned from human kidney cDNA library (Clontech); His-tag (N); made in house; host or cells: Sf-9 insect cells (Bac-to-Bac baculovirus)
# PROCEDURE SUMMARY: Measurement of inhibitory activity on human ACC2 (MALDI-TOF MS, acetyl CoA to malonyl CoA conversion)
# Type: biochemical
# DETAILS: inhibition activity on human ACC2, Table 80; read-out: IC50
ENDPOINT NAME: IC50 (µM)

Read the entry C[C@@H](/C=C/c1cnc(Oc2ccc(OCC3CC3)cc2Cl)s1)NC(=O)NCCC(F)(F)F and write its reported IC50. 0.3

(I) C[C@@H](/C=C/c1cnc(Oc2ccc(OCC3CC3)cc2Cl)s1)NC(=O)[C@H]1CNC(=O)O1
(II) CCOc1ccc(Oc2ccc(/C=C/[C@H](C)Nc3cc(C)no3)cn2)c(Cl)c1
# return whichever of I and II has the smaller IC50 # reply format: chosen label II
(II: 0.038 µM, I: 0.92 µM)

(A) CCNC(=O)N[C@@H](C)/C=C/c1cnn(Cc2ccc(OCC3CC3)cc2Cl)c1
(B) C[C@@H](/C=C/c1cnc(Oc2ccc(OCC3CC3)cc2Cl)s1)NC(=O)c1ccnc(C(=O)NCCN(C)C)c1
Out of A and B , name the one with the higher IC50. # reply format: chosen label A
(A: 1.1 µM, B: 0.018 µM)
